binders and their reported kon
# assay target: T1, EsCas13d, nuclease-dead (Eubacterium siraeum, UniProt B0MS50, R295A;H300A;R849A;H854A)
# T1 sequence: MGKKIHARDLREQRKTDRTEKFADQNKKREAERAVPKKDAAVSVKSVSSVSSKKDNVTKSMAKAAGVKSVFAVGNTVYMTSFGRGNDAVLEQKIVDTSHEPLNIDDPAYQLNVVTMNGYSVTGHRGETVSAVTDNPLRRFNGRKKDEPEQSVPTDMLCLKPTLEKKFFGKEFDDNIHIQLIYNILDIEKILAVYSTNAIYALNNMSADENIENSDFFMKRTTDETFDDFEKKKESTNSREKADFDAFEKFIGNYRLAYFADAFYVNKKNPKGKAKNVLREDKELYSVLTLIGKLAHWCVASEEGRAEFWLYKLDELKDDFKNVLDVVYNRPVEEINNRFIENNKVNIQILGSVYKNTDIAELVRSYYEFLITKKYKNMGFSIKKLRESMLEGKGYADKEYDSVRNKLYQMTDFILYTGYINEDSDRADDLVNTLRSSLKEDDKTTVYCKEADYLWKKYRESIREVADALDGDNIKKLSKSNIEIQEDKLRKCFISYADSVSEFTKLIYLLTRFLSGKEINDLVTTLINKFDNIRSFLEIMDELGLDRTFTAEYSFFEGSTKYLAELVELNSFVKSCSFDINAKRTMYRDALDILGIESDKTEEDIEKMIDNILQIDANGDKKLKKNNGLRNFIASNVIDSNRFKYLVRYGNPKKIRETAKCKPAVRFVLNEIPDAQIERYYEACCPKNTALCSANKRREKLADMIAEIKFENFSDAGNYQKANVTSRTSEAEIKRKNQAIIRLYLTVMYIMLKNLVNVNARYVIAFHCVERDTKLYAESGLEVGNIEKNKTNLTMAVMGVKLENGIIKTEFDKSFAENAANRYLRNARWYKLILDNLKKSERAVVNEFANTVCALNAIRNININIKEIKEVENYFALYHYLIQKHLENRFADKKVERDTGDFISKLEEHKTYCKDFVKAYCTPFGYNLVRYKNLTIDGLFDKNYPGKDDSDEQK
# test: BLI; crRNA (strand 1, pre-loaded); Mg2+; 40 mM Tris-HCl pH 7.5, 150 mM NaCl, 6 mM MgCl2, 1 mM DTT, 0.1% Tween-20, 0.2 mg/ml BSA; temperature not stated
# condition info: tags: His6-TwinStrep-SUMO cleaved; label: 3' biotin on strand 2
Return type: number; implicit unit M⁻¹ s⁻¹.

target 1 A20C (60-mer) (mixed) RNA 1: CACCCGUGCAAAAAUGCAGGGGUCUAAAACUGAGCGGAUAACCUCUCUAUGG RNA 2: CCACAUCUACGAAUUCGUACCCUAGAGAGGUUAUCCGCUCACCGAGAUCGGAAGAGCACA; 100000

// returns reported kon for input target 1 U10G (60-mer) (mixed) RNA 1: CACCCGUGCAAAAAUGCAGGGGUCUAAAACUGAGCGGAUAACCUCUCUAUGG RNA 2: CCACAUCUACGAAUUCGUACCAUAGAGAGGUGAUCCGCUCACCGAGAUCGGAAGAGCACA
130000
